Target: BRAF D594G (Homo sapiens, UniProt P15056, D594G)
Construct: Horizon Discovery (HCT-116 BRAF−/− cells); host or cells: HCT-116 BRAF−/− cells, clone 63, lentiviral transduction
Sequence (P15056 whole entry D594G): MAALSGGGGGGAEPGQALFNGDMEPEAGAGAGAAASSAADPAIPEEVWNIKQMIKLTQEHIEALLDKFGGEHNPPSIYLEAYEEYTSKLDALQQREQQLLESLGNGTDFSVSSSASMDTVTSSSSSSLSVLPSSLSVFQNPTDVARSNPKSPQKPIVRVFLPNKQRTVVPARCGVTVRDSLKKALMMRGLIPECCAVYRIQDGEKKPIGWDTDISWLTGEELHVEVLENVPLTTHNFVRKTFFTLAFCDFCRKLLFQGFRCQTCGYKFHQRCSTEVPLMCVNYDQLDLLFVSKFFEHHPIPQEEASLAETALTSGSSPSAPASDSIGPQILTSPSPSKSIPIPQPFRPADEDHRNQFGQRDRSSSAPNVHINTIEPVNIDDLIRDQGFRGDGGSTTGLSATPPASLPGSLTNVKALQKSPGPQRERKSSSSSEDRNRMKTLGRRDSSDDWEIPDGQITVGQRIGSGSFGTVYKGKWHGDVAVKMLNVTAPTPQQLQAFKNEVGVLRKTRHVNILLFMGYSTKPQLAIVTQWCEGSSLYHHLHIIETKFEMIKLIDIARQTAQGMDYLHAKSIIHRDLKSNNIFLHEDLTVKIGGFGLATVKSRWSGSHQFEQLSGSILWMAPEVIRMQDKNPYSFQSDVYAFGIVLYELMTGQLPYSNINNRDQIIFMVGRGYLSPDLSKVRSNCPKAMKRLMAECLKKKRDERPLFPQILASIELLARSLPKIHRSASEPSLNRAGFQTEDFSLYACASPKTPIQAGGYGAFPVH
Test: BRAF HiBiT degradation assay, C-terminal HiBiT-tagged BRAF D594G overexpressed in HCT-116 BRAF−/− cells (clone 63), Nano-Glo HiBiT Lytic assay
Type: cell-based
Settings: BRAF D594G (Class 3), HCT-116 BRAF−/− cells; observed Dmax relative to DMSO control
Description: An A375 cell line expressing a homozygous V600E mutation was purchased from ATCC (Manassas, VA, USA). […] HiBiT signal was measured by a Nano-Glo HiBiT Lytic assay (Promega cat. no. N3050). […] Luminesce units (LU) were read on an EnVision plate reader 2105 (Perkin Elmer). Percent protein remaining and viability remaining per sample were calculated as follows: […]
Overview of recorded Dmax for various compounds
reported property: Dmax

CCN(C)S(=O)(=O)Nc1cccc(-c2cn(-c3ccc(N4CCN(CC5CCN(c6ccc([C@@H]7CCC(=O)NC7=O)cn6)CC5)CC4)c(F)c3)nc2-c2ccncc2)c1F
30 to 70%
O=C1CC[C@H](c2ccc(N3CCC(CN4CCN(c5ccc(-n6cc(-c7cc(Cl)cc(NS(=O)(=O)N8CCCC8)c7F)c(-c7ccncc7)n6)c(F)c5)CC4)CC3)cc2)C(=O)N1
30 to 70%
C[C@@H]1CN(c2ccc(-n3cc(-c4cc(Cl)cc(NS(=O)(=O)N5CCCC5)c4F)c(-c4ccncc4)n3)cc2)CCN1CC1CCN(c2ccc([C@H]3CCC(=O)NC3=O)cc2)CC1
30 to 70%
CCN(C)S(=O)(=O)Nc1cc(Cl)cc(-c2cn(-c3ccc(N4CCN(CC5CCN(c6ccc(N7CCC(=O)NC7=O)cc6)CC5)CC4)cc3)nc2-c2ccncc2)c1F
30 to 70%
CCCS(=O)(=O)Nc1cccc(-c2nc(C3CCN(C(=O)C4CCN(C(=O)C5CCN(c6ccc(C7CCC(=O)NC7=O)cn6)CC5)CC4)CC3)sc2-c2ccnc(N)n2)c1F (racemic)
30 to 70%
O=C1CCN(c2ccc(N3CCC(CN4CCN(c5cnc(-n6cc(-c7cc(Cl)cc(NS(=O)(=O)N8CCCC8)c7F)c(-c7ccncc7)n6)nc5)CC4)CC3)cc2)C(=O)N1
30 to 70%
O=C1CC[C@@H](c2ccc(N3CCC(CN4CCN(c5ccc(-n6cc(-c7cc(Cl)cc(NS(=O)(=O)N8CCCC8)c7F)c(-c7ccncc7)n6)cc5)CC4)CC3)cc2F)C(=O)N1
30 to 70%
O=C1CC[C@H](c2ccc(N3CCC(CN4CCN(c5ccc(-n6cc(-c7cc(Cl)cc(NS(=O)(=O)N8CCCC8)c7F)c(-c7ccncc7)n6)cc5)CC4)CC3)nc2)C(=O)N1
30 to 70%
O=C1CCC(c2ccc(N3CCC(CN4CCN(c5ccc(-n6cc(-c7cc(Cl)cc(NS(=O)(=O)N8CCCC8)c7F)c(-c7ccncc7)n6)cc5F)CC4)CC3)nc2)C(=O)N1 (racemic)
> 70%
CCC(C)S(=O)(=O)Nc1cc(Cl)cc(-c2cn(-c3ccc(N4CCN(CC5CCN(c6ccc([C@H]7CCC(=O)NC7=O)cn6)CC5)CC4)cc3)nc2-c2ccncc2)c1F (mixture of isomers)
> 70%
CCCS(=O)(=O)Nc1cc(Cl)cc(-c2cn(-c3ccc(N4CCN(CC5CCN(c6ccc(N7CCC(=O)NC7=O)cc6)CC5)[C@@H](C)C4)cc3)nc2-c2ccncc2)c1F
< 30%
CCCS(=O)(=O)Nc1cc(Cl)cc(-c2cn(-c3ccc(N4CCN(CC5CCN(c6ccc(C7CCC(=O)NC7=O)cn6)CC5)[C@H](C)C4)cc3)nc2-c2ccncc2)c1F (mixture of isomers)
30 to 70%
O=C1CCC(c2ccc(N3CCC(CN4CCN(c5ccc(-n6cc(-c7cc(Cl)cc(NS(=O)(=O)N8CCCC8)c7F)c(-c7ccncc7)n6)cc5)CC4)CC3)cc2F)C(=O)N1 (racemic)
30 to 70%
CCCS(=O)(=O)Nc1cccc(-c2nc(C3CCC4(CC3)CCN(CC[C@H]3CCN(c5ccc(C6CCC(=O)NC6=O)cn5)C3)CC4)sc2-c2ccnc(N)n2)c1F (mixture of isomers)
< 30%
O=C1CC[C@H](c2ccc(N3CCC(CN4CCCN(c5ccc(-n6cc(-c7cc(Cl)cc(NS(=O)(=O)N8CCCC8)c7F)c(-c7ccncc7)n6)c(F)c5)CC4)CC3)cc2)C(=O)N1
< 30%
CCN(C)S(=O)(=O)Nc1cc(Cl)cc(-c2cn(-c3ccc(N4CCN(CC5CCN(c6ccc([C@H]7CCC(=O)NC7=O)cn6)CC5)CC4)cc3)nc2-c2ccncc2)c1F
30 to 70%
O=C1CCN(c2ccc(N3CCC(CN4CCN(c5ccc(-n6cc(-c7cc(Cl)cc(NS(=O)(=O)N8CC[C@@H](F)C8)c7F)c(-c7ccncc7)n6)c(F)c5)CC4)CC3)nc2)C(=O)N1
30 to 70%
O=C1CC[C@H](c2ccc(N3CCC(CN4CCN(c5ccc(-n6cc(-c7cc(F)cc(NS(=O)(=O)N8CC[C@@H](F)C8)c7F)c(-c7ccncc7)n6)nc5)CC4)CC3)cc2)C(=O)N1
> 70%
O=C1CCC(c2ccc(N3CCC(CN4CCN(c5ccc(-n6cc(-c7cc(Cl)cc(NS(=O)(=O)N8CC(F)C8)c7F)c(-c7ccncc7)n6)cc5)CC4)CC3)nc2)C(=O)N1 (racemic)
30 to 70%
O=C1CC[C@H](c2ccc(N3CCC(CN4CCN(c5ccc(-n6cc(-c7cc(Cl)cc(NS(=O)(=O)N8CCCC8)c7F)c(-c7ccncc7)n6)cc5F)CC4)CC3)cc2)C(=O)N1
> 70%
